Give #Cases >70% cell death for every item shown.
Test system: relapsed AML cells
Test: Drug sensitivity assay, 1,536-well, 3-day culture with individual approved drugs at 10 μM, viability by alamarBlue
Format: cell-based, human
Conditions: number of relapsed AML cases out of 18 tested with >70% cell death; 10 μM, 3-day culture
Output spec: single numeric token, no unit.

Input: Tell me its #Cases >70% cell death given CCCCCN(C)CCC(O)(P(=O)(O)O)P(=O)(O)O [IBANDRONATE] as the entry.
Output: 1

Input: State its #Cases >70% cell death: `Nc1ncn([C@@H]2O[C@H](CO)[C@@H](O)[C@H]2O)c(=O)n1`
Output: 8

Input: Item `CC[C@@H](C(=O)[C@@H](C)[C@@H](O)[C@H](C)[C@@H]1O[C@@H]([C@@H](CC)C(=O)O)CC[C@@H]1C)[C@H]1O[C@]2(C=C[C@@H](O)[C@]3(CC[C@@](C)([C@H]4CC[C@](O)(CC)[C@H](C)O4)O3)O2)[C@H](C)C[C@@H]1C` : provide #Cases >70% cell death
Output: 10

Input: Give the reported value of #Cases >70% cell death for this record: Cc1ncc2c(c1O)COC2c1ccc(Cl)cc1 (stereo not shown)
Output: 4

Input: Name the recorded #Cases >70% cell death of the item `O=C([O-])C[C@H](O)C[C@H](O)/C=C/c1c(C2CC2)nc2ccccc2c1-c1ccc(F)cc1.O=C([O-])C[C@H](O)C[C@H](O)/C=C/c1c(C2CC2)nc2ccccc2c1-c1ccc(F)cc1.[Ca+2]` in your answer.
Output: 13

Input: Answer with the recorded #Cases >70% cell death for the molecule listed here: `Cc1cnc(C(=O)O)c[n+]1[O-]`
Output: 1

Input: # return recorded #Cases >70% cell death for input `CN1CCC[C@@H]1CCO[C@](C)(c1ccccc1)c1ccc(Cl)cc1`
Output: 1

---

System: AML patient samples
Assay: 10-point dose-response drug screen of statins against AML patient samples, 3-day drug sensitivity assay
Assay type: cell-based, human
Conditions: Homo sapiens, 72 h; patient sample AML 290; 3-day assay; read-out: IC50 AML 290
Readout type: pIC50
In textbook form, pIC50 equals minus log to base ten of the concentration in mol/L.

Input: Output measured pIC50 for this item: CC[C@H](C)C(=O)O[C@H]1C[C@@H](C)C=C2C=C[C@H](C)[C@H](CC[C@@H]3C[C@@H](O)CC(=O)O3)[C@H]21 [LOVASTATIN]
Output: 5.36

Input: Supply pIC50 value. Item: CC(C)n1c(/C=C/C(O)CC(O)CC(=O)O)c(-c2ccc(F)cc2)c2ccccc21 (stereo not shown) [FLUVASTATIN]
Output: 6.38

---

Test system: relapsed AML cells
Test: Drug sensitivity assay, 1,536-well, 3-day culture with individual approved drugs at 10 μM, viability by alamarBlue
Type: cell-based, human
Settings: number of relapsed AML cases out of 18 tested with >70% cell death; 10 μM, 3-day culture
Experimental: Drug sensitivity assays were performed using a 1,536-well platform where all cells and reagents were deposited in wells using an acoustic liquid handling unit that is highly accurate for dispensing of nanoliter volumes of liquid. […] After dispensing the cells into the wells, an independent drug at a known concentration is added to each well and incubated with the cells. After three days, the percentage of live cells in each well is determined to assess the killing efficiency of each compound. […]
Assignment: determine reported #Cases >70% cell death for the given molecules.
No unit in the answer, please; the number alone is enough.

Input: Given `Oc1c(Cl)cc(Cl)c2cccnc12` , respond with its #Cases >70% cell death.
Output: 1

Input: Answer with the recorded #Cases >70% cell death for the molecule listed here: CCCNCC(O)COc1ccccc1C(=O)CCc1ccccc1 (centres unmarked)
Output: 1

Input: Return reported #Cases >70% cell death. Input molecule: Cc1cc2nc3ccc(N(C)C)cc3[s+]c2cc1N [TOLONIUM CHLORIDE]
Output: 11

Input: Let me know recorded #Cases >70% cell death for `OCCOCCN1CCN(C2=Nc3ccccc3Sc3ccccc32)CC1` , thanks.
Output: 1

Input: Answer with the recorded #Cases >70% cell death for the molecule listed here: `CC(C)c1cc(C(C)C)c(-c2csc(N(CCN(C)C)Cc3cccnc3)n2)c(C(C)C)c1`
Output: 6

Input: Tell us which #Cases >70% cell death value is on record for `CC(=O)Nc1ccc(C(=O)Nc2ccccc2N)cc1`
Output: 4

Input: Quick one: give measured #Cases >70% cell death for `CC[C@H]1OC(=O)[C@H](C)[C@@H](O[C@H]2C[C@@](C)(OC)[C@@H](O)[C@H](C)O2)[C@H](C)[C@@H](O[C@@H]2O[C@H](C)C[C@H](N(C)C)[C@H]2O)[C@](C)(O)C[C@@H](C)CN(C)[C@H](C)[C@@H](O)[C@]1(C)O`
Output: 1

Input: For the molecule `CCN(CC)CCOc1ccc2c(c1)C(=O)c1cc(OCCN(CC)CC)ccc1-2` , report #Cases >70% cell death.
Output: 10

---

Test system: relapsed AML cells
Assay: Drug sensitivity assay, 1,536-well, 3-day culture with individual approved drugs at 10 μM, viability by alamarBlue
Type: cell-based, human
Details: number of relapsed AML cases out of 18 tested with >70% cell death; 10 μM, 3-day culture
Structures can show the parent of a compound that is named as a salt.
Grouping by measured #Cases >70% cell death is done with the following cut points: category 1 = under 2, category 2 = from 2 up to 8, category 3 = 8 and over

Input: For the record C#C[C@]1(O)CC[C@H]2[C@@H]3CCC4=Cc5oncc5C[C@]4(C)[C@H]3CC[C@@]21C [DANAZOL] , report the class its #Cases >70% cell death corresponds to.
Output: category 1

Input: Quick check: band for CN1CCc2cccc3c2[C@H]1Cc1ccc(O)c(O)c1-3 [APOMORPHINE]
Output: category 2

Input: Hey, which category is CO[C@H]1C[C@H](O[C@@H]2/C(C)=C/C[C@@H]3C[C@@H](C[C@]4(CC[C@H](C)[C@@H](C5CCCCC5)O4)O3)OC(=O)[C@@H]3C=C(C)/C(=N/O)[C@H]4OC/C(=C\C=C\[C@@H]2C)[C@]43O)O[C@@H](C)[C@@H]1O [SELAMECTIN] in, do you know?
Output: category 3

Input: Which category does the recorded #Cases >70% cell death put `N[C@@H](Cc1ccc(N(CCCl)CCCl)cc1)C(=O)O` in?
Output: category 2

Input: Form field 'band' for CCCCCCCCNC(C)C(O)c1ccc(SC(C)C)cc1 (centres unmarked) [SULOCTIDIL]
Output: category 3

Input: Kindly state the category for this molecule: COc1cc2c(Nc3ccc(Br)cc3F)ncnc2cc1OCC1CCN(C)CC1 [VANDETANIB]
Output: category 1

Input: Could you place C[C@@H](Oc1cc(-c2cnn(C3CCNCC3)c2)cnc1N)c1c(Cl)ccc(F)c1Cl [CRIZOTINIB] in its proper category? Many thanks.
Output: category 3

Input: GET /class?item= O=C(/C=C/c1ccc(CN(CCO)CCc2c[nH]c3ccccc23)cc1)NO [LAQ-824]
Output: category 3

Input: Lab note: which band did COC(=O)Nc1nc2ccc(Sc3ccccc3)cc2[nH]1 [FENBENDAZOLE] land in?
Output: category 2

Input: Just checking, what class would you give CCC(=O)O[C@]1(C(=O)SCF)[C@H](C)C[C@H]2[C@@H]3C[C@H](F)C4=CC(=O)C=C[C@]4(C)[C@@]3(F)[C@@H](O)C[C@@]21C [FLUTICASONE PROPIONATE] here?
Output: category 2

Input: Pick a category. Item: CC[C@H]1OC(=O)C[C@@H](O)[C@H](C)[C@@H](O[C@@H]2O[C@H](C)[C@@H](O)[C@H](N(C)C)[C@H]2O)[C@@H](CCN2C[C@H](C)C[C@H](C)C2)C[C@@H](C)C(=O)/C=C/C(C)=C/[C@@H]1CO[C@@H]1O[C@H](C)[C@@H](O)[C@@H](OC)[C@H]1OC [TILMICOSIN]
Output: category 1

Input: Form: Item = Nc1nc(NC2CC2)c2ncn([C@H]3C=C[C@@H](CO)C3)c2n1 [ABACAVIR SULFATE] ; Class = ?
Output: category 1

Input: Please indicate the class for CC[C@@]1(O)C(=O)OCc2c1cc1n(c2=O)Cc2cc3ccccc3nc2-1 [CAMPTOTHECIN] based on its #Cases >70% cell death.
Output: category 3

Input: Could you tell me which band Cn1nnc2c(C(N)=O)ncn2c1=O [TEMOZOLAMIDE] belongs to?
Output: category 3

Input: Returns: class label. Input: Cc1ccc(C(=O)Nc2ccc(CN3CCN(C)CC3)c(C(F)(F)F)c2)cc1C#Cc1cnc2cccnn12 [PONATINIB]
Output: category 3

Input: Would you mind sorting CCC(=O)O[C@]1(C(=O)CCl)[C@@H](C)C[C@H]2[C@@H]3CCC4=CC(=O)C=C[C@]4(C)[C@@]3(F)[C@@H](O)C[C@@]21C [CLOBETASOL PROPIONATE] into the appropriate category?
Output: category 2

Input: Quick check: band for Nc1nc(Cl)nc2c1ncn2[C@H]1C[C@H](O)[C@@H](CO)O1 [CLADRIBINE]
Output: category 3

Input: GET /class?item= NC[C@H]1O[C@H](O[C@H]2[C@H](O)[C@@H](O[C@H]3O[C@H](CO)[C@@H](O)[C@H](N)[C@H]3O)[C@H](N)C[C@@H]2N)[C@H](N)C[C@@H]1O [TOBRAMYCIN]
Output: category 1

Input: Consider CS(=O)(=O)N1CCc2c(-c3cnc(N)nc3)nc(N3CCOCC3)nc21 [CH5132799] . To which #Cases >70% cell death class does it belong?
Output: category 2

Input: Bin this entry: `O=C(O)CCCCN(CCc1ccccc1OCc1ccc(CCc2ccccc2)cc1)Cc1ccc(C(=O)O)cc1`
Output: category 1

Input: Where would CCN[C@H]1C[C@H](C)S(=O)(=O)c2sc(S(N)(=O)=O)cc21 [DORZOLAMIDE] land among the classes by reported #Cases >70% cell death?
Output: category 2

Input: Please indicate the class for CC(C)(Sc1cc(C(C)(C)C)c(O)c(C(C)(C)C)c1)Sc1cc(C(C)(C)C)c(O)c(C(C)(C)C)c1 [PROBUCOL] based on its #Cases >70% cell death.
Output: category 2

Input: Pick a category. Item: CCOC(=O)c1c(N)sc2c1CCN(Cc1ccccc1)C2 [Y-3642]
Output: category 1

Input: Using the reported #Cases >70% cell death, which band applies to C#C[C@]1(O)CC[C@H]2[C@@H]3CCc4cc(O)ccc4[C@H]3CC[C@@]21C [ETHINYL ESTRADIOL] ?
Output: category 1

Input: # bin label for `c1ccc2c(CCNc3ccc(Nc4ccncc4)cc3)c[nH]c2c1`
Output: category 3
